# Test system: COLO 205 colon
# PROTOCOL: NCI-60 one-dose screen, 48 h (100 = growth as untreated, 0 = no growth, -100 = all killed)
# SETUP CONDITIONS: 10 µM unless noted
About 83,000 compounds went through this panel and 20% of them were active in at least one assay; those are over-represented in the sample as a whole. The source made the active and inactive calls. How the source made its calls: active means growth percent below 10; inactive means the rest.
MEASUREMENT LABEL: growth

Asked: Under COLO 205 colon: growth value of `CCCCn1sc(=O)n(Cc2ccc(CNC(=O)OCc3ccc4c(Br)cc(Br)c(O)c4n3)cc2)c1=O` ?
Given back: 114% (inactive)

Asked: Give COLO 205 colon growth for `O=C(N/N=C/c1ccc(Cl)cc1Cl)c1ccc2nc(-c3ccc(Cl)cc3)[nH]c2c1`
Given back: -23.9% (active)

Asked: COLO 205 colon / growth / `CCOC(=O)Nc1nc2ccc(SCC(C)C)cc2s1` : value?
Given back: -14.9% (active)

Asked: Record `Cc1[nH]c(C(=O)Nc2ccc(C(N)=O)cc2NC(C)C)c(Cl)c1Cl` : what is its growth with COLO 205 colon?
Given back: 122% (inactive)

Asked: What reported growth corresponds to Cc1c(N2CN3C[C@H](C)N4CN(c5c(C)n(C)n(-c6ccccc6)c5=O)CN5C[C@@H](C)N(C2)C3C54)c(=O)n(-c2ccccc2)n1C (some centres undefined) on COLO 205 colon?
Given back: 109% (inactive)

Asked: // lookup growth | system=COLO 205 colon | key= C[Se]C(=O)CC1=C2C=C(F)C=CC2/C(=C\c2ccc(S(C)=O)cc2)C1C (centres undefined)
Given back: -17.4% (active)

Asked: Field: growth (COLO 205 colon). Entry: `CCn1cc(C2=C(c3cn(C)c4ncccc34)C(=O)NC2=O)c2cccnc21`
Given back: 49% (inactive)

Asked: // map `COc1cc2c3c(c1O)-c1ccccc1[C@@H]1OC(=O)N(CC2)[C@H]31` to recorded growth (system: COLO 205 colon)
Given back: 107% (inactive)

Asked: Hello, I am looking for reported growth with COLO 205 colon for C=CC1(C)C(O[Si](C)(C)C(C)(C)C)CC2C3OC(=O)NC31c1cccc3c1[C@H](C(=O)N3C)C2(C)C (some centres undefined) . Could you help?
Given back: 40.8% (inactive)

* * *

# System: T-47D breast
# PROTOCOL: NCI-60 one-dose screen, 48 h
# SETUP CONDITIONS: 10 µM unless noted
About 83,000 compounds went through this panel and 20% of them were active in at least one assay; those are over-represented in the sample as a whole. Activity calls are given as the source filed them. How the source made its calls: active means growth percent below 10; inactive means the rest.
Return exactly one item of 1 = active, -1 = inactive

Asked: Which outcome was entered for the compound `Cn1ncc2ccc(-c3nc(-c4ccccc4)[nH]c3-c3n[nH]c(=O)n3C3CC3)cc21` in this test?
Given back: -1

Asked: Given `CN1CCN(CCOc2ccc(-c3cnc4c(-c5ccc(C(F)(F)F)cc5)cnn4c3)cc2)CC1` , state the outcome it received in this test.
Given back: -1

Asked: Any idea what this test logged for `COc1ccccc1NC(=O)c1ccc(/C=C/C(=O)c2nccn2C)cc1` ?
Given back: 1

Asked: For `COc1ccc2c(O)c(/C=C3\N=Nc4ccccc43)oc2c1C[C@H]1CCNC[C@H]1F` , what call appears in the results of this test?
Given back: -1

Asked: Query: recorded result category for `N#CCC1=NC(c2cccs2)=Nc2ccccc2S1` in this test
Given back: -1
